Would you mind telling me the reported slope of each entry?
- SYSTEM_NAME: Alpha-2C adrenergic receptor (Homo sapiens) (UniProt P18825)
- Sequence (P18825 whole entry, looked up): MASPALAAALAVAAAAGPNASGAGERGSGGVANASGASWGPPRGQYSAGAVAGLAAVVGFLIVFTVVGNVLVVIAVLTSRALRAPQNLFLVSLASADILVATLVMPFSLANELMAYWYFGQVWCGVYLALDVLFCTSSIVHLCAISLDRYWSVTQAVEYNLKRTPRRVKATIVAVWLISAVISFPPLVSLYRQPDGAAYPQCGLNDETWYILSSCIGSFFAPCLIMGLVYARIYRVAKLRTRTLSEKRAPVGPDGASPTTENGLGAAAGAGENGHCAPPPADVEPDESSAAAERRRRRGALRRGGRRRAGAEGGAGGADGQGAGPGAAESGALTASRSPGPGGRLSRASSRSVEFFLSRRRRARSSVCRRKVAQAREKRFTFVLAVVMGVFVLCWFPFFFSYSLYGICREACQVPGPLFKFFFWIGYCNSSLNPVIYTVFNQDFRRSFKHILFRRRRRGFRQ
- PROTOCOL_DESCRIPTION: compounds altering alpha2C-coupled GIRK flux – cell-based, HEK293 alpha2C/GIRK1/2, thallium flux, primary screen (AID 624);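 also: slope of fluorescence ratio to pre-addition baseline per second over 15 to 24 s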
- CONDITIONS_USED: thallium flux BTC fluorescence, at 10 µM, actives lie on both sides
Numbers only.

1) COCCCNC(=O)CSc1nc2ccc(N3CCOCC3)cc2c(=O)n1CCc1ccccc1 :: 0.00582

Your task in this section: give slope for each listed record.
1. Cc1ccc(-c2nn[nH]n2)cc1
2. CCOC(=O)N1CCN(C(=O)c2cnn(-c3ccccc3)c2NC(=O)c2ccccc2F)CC1

Result:
0.00429
0.00614

Your task in this section: give slope for each listed record.
1. CCOC(=O)CSc1nn(C)c(=S)s1
2. N#CC1=C(N)N2C(=C(C#N)C13CCCCC3)SC1CCCCC12O (stereo unspecified)
3. COC(=O)c1ccccc1NC(=O)CN1CCC(n2nnc3cc(F)ccc32)CC1

Result:
1. 0.00733
2. 0.00499
3. 0.00532

Measured values drawn from PubChem BioAssay for this set.
